Measured melting point, listed per entry for reference.

For orientation, consider the following solved cases.
{"MOLECULE": "C=CC(=O)NCc1ccc([N+](=O)[O-])cc1", "MEAS VALUE": "119 to 121 °C"}
{"MOLECULE": "O=C(O)c1cn(C2COC2)c2cc(F)c(F)cc2c1=O", "MEAS VALUE": "255 to 256 °C"}
{"MOLECULE": "CCN1CCc2ccc(Nc3ncc(C#N)c(Nc4ccccc4C(=O)NC)n3)cc2CC1", "MEAS VALUE": "164 to 170 °C"}
{"MOLECULE": "Nc1cccc2c1OCC2", "MEAS VALUE": "70 to 72 °C"}

Please find the next molecule below.
IN: Endpoint output: melting point of ClCc1cccc2c(-c3ccc(Cl)cc3)nccc12 . Value?
OUT: 101 to 102 °C
